System Name: Recombinant STAT3 protein (STAT3 (G127-I722)) (Homo sapiens, UniProt P40763)
Construct: Recombinant STAT3 protein (STAT3 (G127-I722))
Sequence (P40763 127-722): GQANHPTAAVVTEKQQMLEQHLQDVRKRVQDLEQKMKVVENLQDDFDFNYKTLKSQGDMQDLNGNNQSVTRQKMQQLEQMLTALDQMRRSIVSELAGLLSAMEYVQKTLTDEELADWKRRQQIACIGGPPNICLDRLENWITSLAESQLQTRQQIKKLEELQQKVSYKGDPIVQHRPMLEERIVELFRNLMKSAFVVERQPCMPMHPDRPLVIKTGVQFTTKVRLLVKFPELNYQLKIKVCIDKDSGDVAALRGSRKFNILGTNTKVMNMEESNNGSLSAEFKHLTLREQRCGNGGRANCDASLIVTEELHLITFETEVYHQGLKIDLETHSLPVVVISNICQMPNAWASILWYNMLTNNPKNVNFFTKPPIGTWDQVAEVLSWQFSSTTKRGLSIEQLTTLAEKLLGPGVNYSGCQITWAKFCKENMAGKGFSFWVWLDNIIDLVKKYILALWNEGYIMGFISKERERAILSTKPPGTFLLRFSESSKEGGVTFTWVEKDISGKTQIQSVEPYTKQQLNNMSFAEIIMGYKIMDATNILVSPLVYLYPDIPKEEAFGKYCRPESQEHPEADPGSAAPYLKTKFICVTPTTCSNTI
Assay Notes: STAT3 Fluorescence Polarization (FP) Assay
Format: binding
Assay Context: STAT3 25 nM, probe 5-FAM-GpYLPQTV-NH2 2 nM, 45-minute incubation; read-out: STAT3 (FP assay IC50)
pIC50: −log10 of the molar value.
Listed next: entries and their corresponding pIC50.

Known pIC50 results, listed for orientation:
O=C(N[C@H]1CCC[C@H]2CC[C@@H](C(=O)Nc3ccc(-c4ccccc4)cc3)N2C1=O)c1ccc2ccc(C(F)(F)P(=O)(O)O)cc2c1 [Compound 29]    6.00 to 7.00
CC(C)(O)c1cn(C2CN(C(=O)[C@@H]3CC[C@@H]4CCCC[C@H](NC(=O)c5cc6cc(C(F)(F)P(=O)(O)O)ccc6s5)C(=O)N43)C2)nn1 [Compound 56]    6.00 to 7.00

Exercise: Request the reported pIC50 associated with N#C[C@H]1CN(C(=O)[C@@H]2CC[C@@H]3CCCCC[C@H](NC(=O)c4cc5cc(C(F)(F)P(=O)(O)O)ccc5s4)C(=O)N32)C[C@@H]1c1ccccc1 (racemic) [Compound 75]
Solution: 5.00 to 6.00

---

System Name: Recombinant STAT3 protein (STAT3 (G127-I722)) (Homo sapiens)
Construct: Recombinant STAT3 protein (STAT3 (G127-I722))
Assay Notes: STAT3 Fluorescence Polarization (FP) Assay
Format: binding
Assay Context: STAT3 (G127-I722) 25 nM, probe 5-FAM-GpYLPQTV-NH2 2 nM, 45-minute incubation; read-out: STAT3 (FP assay IC50 class)
pIC50: −log10 of the molar value.
Property Label: pIC50

O=C(N[C@H]1CCCC[C@H]2CC[C@@H](C(=O)N3C[C@H](c4cc[nH]c(=O)c4)CC34CC4)N2C1=O)c1ccc2ccc(CP(=O)(O)O)cc2c1 [Compound 882]    5.00 to 6.00
O=C(N[C@H]1CCC[C@H]2CC[C@@H](C(=O)N3CC(n4ncc5ccccc54)C3)N2C1=O)c1cc2cc(C(F)(F)P(=O)(O)O)ccc2s1 [Compound 821]    6.00 to 7.00
O=C(N[C@H]1CCC[C@H]2CC[C@@H](C(=O)N3CC(c4cccnc4)C3)N2C1=O)c1cc2cc([C@@H](F)P(=O)(O)O)ccc2s1 [Compound 873]    > 7.00
O=C(N[C@H]1CCC[C@H]2CC[C@@H](C(=O)N3CC(c4cnccc4N4CC5(COC5)C4)C3)N2C1=O)c1cc2cc(CP(=O)(O)O)ccc2s1 [Compound 704]    > 7.00

Exercise: Request the reported pIC50 associated with COC(=O)N1CC(NC(=O)[C@@H]2CC[C@@H]3CCCC[C@H](NC(=O)c4cc5cc(C(F)P(=O)(O)O)ccc5s4)C(=O)N32)C1 (stereo partly drawn) [Compound 523]
Solution: 5.00 to 6.00

Exercise: Request the reported pIC50 associated with O=C(N[C@H]1CCCC[C@H]2CC[C@@H](C(=O)N3Cc4cn(C5CC5)nc4C3)N2C1=O)c1cc2cc(C(F)(F)P(=O)(O)O)ccc2s1 [Compound 794]
Solution: 6.00 to 7.00

---

System Name: pY705-STAT3 in PBMC (Homo sapiens, UniProt P40763)
Construct: Cryopreserved Peripheral Blood Mononuclear Cells (PBMC) are from AllCells; host or cells: cryopreserved PBMC
Sequence (P40763 whole entry): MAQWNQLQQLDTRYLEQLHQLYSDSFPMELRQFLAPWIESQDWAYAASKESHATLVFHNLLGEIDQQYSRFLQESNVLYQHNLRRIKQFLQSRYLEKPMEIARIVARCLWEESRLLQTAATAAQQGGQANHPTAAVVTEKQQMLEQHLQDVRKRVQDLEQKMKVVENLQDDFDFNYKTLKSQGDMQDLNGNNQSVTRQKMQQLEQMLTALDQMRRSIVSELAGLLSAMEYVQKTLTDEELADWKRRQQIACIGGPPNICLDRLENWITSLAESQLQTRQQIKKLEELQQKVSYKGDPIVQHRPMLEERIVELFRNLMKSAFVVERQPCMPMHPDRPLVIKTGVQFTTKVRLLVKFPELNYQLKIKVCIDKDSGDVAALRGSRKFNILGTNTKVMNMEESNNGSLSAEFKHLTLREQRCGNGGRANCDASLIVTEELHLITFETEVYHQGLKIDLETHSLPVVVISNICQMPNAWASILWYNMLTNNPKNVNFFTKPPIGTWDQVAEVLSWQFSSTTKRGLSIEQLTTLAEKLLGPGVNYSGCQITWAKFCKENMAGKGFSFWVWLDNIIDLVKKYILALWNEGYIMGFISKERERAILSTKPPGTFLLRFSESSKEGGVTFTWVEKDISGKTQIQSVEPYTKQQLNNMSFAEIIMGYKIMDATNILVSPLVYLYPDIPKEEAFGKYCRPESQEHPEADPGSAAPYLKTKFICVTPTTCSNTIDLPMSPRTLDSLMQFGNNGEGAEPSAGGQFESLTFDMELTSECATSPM
Assay Notes: MSD-pSTAT-PBMC Assay (pSTAT3, IL-6 stimulated)
Type: cell-based
Assay Context: PBMC, compound 3 hrs, then 10 ng/mL IL-6 for 10 min; Table 115; read-out: STAT3
Method: Cryopreserved Peripheral Blood Mononuclear Cells (PBMC) are from AllCells. Recombinant Human IL-4 and IL-6 are from Peprotech. […] Cyropreserved PBMCs were thawed out and allowed to recover overnight in IMDM+10% heat-inactivated FBS prior to plating 50,000 (STAT3) or 25,000 (STAT6) cells per well in 96-well U-bottom tissue culture plates. […] Assay plates were then washed and 150 μL of 1× Read Buffer-T (MSD) was added to each well prior to reading on an SQ120 MSD Plate Reader. […]
Property Label: IC50

Exercise: Request the reported IC50 associated with CCCOC(=O)[C@H](C)N[P@@](=O)(Oc1ccccc1)[C@@H](F)c1ccc2sc(C(=O)N[C@H]3CCC[C@H]4CC[C@@H](C(=O)N5CC(c6cnccc6OC)C5)N4C3=O)cc2c1 (single isomer, unassigned) [Compound 1039]
Solution: < 100 nM

Exercise: Request the reported IC50 associated with CCCOC(=O)[C@H](C)N[P@](=O)(Oc1ccccc1)[C@H](F)c1ccc2sc(C(=O)N[C@H]3CCC[C@H]4CC[C@@H](C(=O)N5CC(c6cnccc6N6CCOCC6)C5)N4C3=O)cc2c1 (single isomer, unassigned) [Compound 1044]
Solution: < 100 nM

Exercise: Request the reported IC50 associated with CCCOC(=O)[C@H](C)NP(=O)(Oc1ccccc1)[C@H](F)c1ccc2sc(C(=O)N[C@H]3CCC[C@H]4CC[C@@H](C(=O)N5CC(c6cncnc6N(C)C)C5)N4C3=O)cc2c1 (stereo partly drawn)
Solution: < 100 nM

Exercise: Request the reported IC50 associated with CCCOC(=O)[C@H](C)NP(=O)(Oc1ccccc1)C(F)(F)c1ccc2sc(C(=O)N[C@H]3CCC[C@H]4CC[C@@H](C(=O)N5CC(c6cccnc6)C5)N4C3=O)cc2c1 (stereo partly drawn) [Compound 400]
Solution: 100 to 1000 nM

Exercise: Request the reported IC50 associated with CCCOC(=O)[C@H](C)NP(=O)(Cc1ccc2sc(C(=O)N[C@H]3CCC[C@H]4CC[C@@H](C(=O)N5CC(c6cccnc6)C5)N4C3=O)cc2c1)Oc1ccccc1 (stereo partly drawn) [Compound 307]
Solution: > 3000 nM

Exercise: Request the reported IC50 associated with CCCC(=O)SCCOP(=O)(OCCSC(=O)CCC)C(F)(F)c1ccc2sc(C(=O)N[C@H]3CCC[C@H]4CC[C@@H](C(=O)N5CC(c6ncccn6)C5)N4C3=O)cc2c1
Solution: < 100 nM

Exercise: Request the reported IC50 associated with CCCOC(=O)[C@H](C)NP(=O)(Cc1ccc2sc(C(=O)N[C@H]3CCC[C@H]4CC[C@@H](C(=O)N5CC(c6cnccc6Cl)C5)N4C3=O)cc2c1)Oc1ccccc1 (stereo partly drawn)
Solution: 100 to 1000 nM

Exercise: Request the reported IC50 associated with CCCOC(=O)[C@H](C)N[P@](=O)(Oc1ccccc1)[C@H](F)c1ccc2sc(C(=O)N[C@H]3CCC[C@H]4CC[C@@H](C(=O)N5CC(c6cnccc6OC)C5)N4C3=O)cc2c1 (single isomer, unassigned)
Solution: < 100 nM

Exercise: Request the reported IC50 associated with COc1ccncc1C1CN(C(=O)[C@@H]2CC[C@@H]3CCC[C@H](NC(=O)c4cc5cc([C@@H](F)[P@](=O)(N[C@@H](C)C(=O)OCC(C)(C)C)Oc6ccccc6)ccc5s4)C(=O)N32)C1 (single isomer, unassigned) [Compound 1056]
Solution: < 100 nM

Exercise: Request the reported IC50 associated with CCCOC(=O)[C@H](C)NP(=O)(Oc1ccccc1)[C@@H](F)c1ccc2sc(C(=O)N[C@H]3CCC[C@H]4CC[C@@H](C(=O)N5CC(c6cncc(F)c6NC)C5)N4C3=O)cc2c1 (stereo partly drawn)
Solution: < 100 nM

Exercise: Request the reported IC50 associated with CCCOC(=O)[C@H](C)NP(=O)(Cc1ccc2sc(C(=O)N[C@H]3CCC[C@H]4CC[C@@H](C(=O)N5CC(c6cccnc6C(F)F)C5)N4C3=O)cc2c1)Oc1ccccc1 (stereo partly drawn)
Solution: < 100 nM

Exercise: Request the reported IC50 associated with CCCOC(=O)[C@H](C)NP(=O)(Oc1ccccc1)C(F)c1ccc2sc(C(=O)N[C@H]3CCCC[C@H]4CC[C@@H](C(=O)N5C[C@@H](c6ccccc6)[C@H](C#N)C56CC6)N4C3=O)cc2c1 (relative stereo)
Solution: > 3000 nM

Exercise: Request the reported IC50 associated with CCCOC(=O)[C@H](C)NP(=O)(Cc1ccc2sc(C(=O)N[C@H]3CCC[C@H]4CC[C@@H](C(=O)N5CC(c6cn(C)ccc6=O)C5)N4C3=O)cc2c1)Oc1ccccc1 (stereo partly drawn)
Solution: > 3000 nM

Exercise: Request the reported IC50 associated with CCCOC(=O)[C@H](CCOC)NP(=O)(Cc1ccc2sc(C(=O)N[C@H]3CCC[C@H]4CC[C@@H](C(=O)N5CC(c6cccnc6)C5)N4C3=O)cc2c1)Oc1ccccc1 (stereo partly drawn)
Solution: 100 to 1000 nM

Exercise: Request the reported IC50 associated with CCOC(=O)[C@H](C)NP(=O)(Cc1ccc2sc(C(=O)N[C@H]3CCC[C@H]4CC[C@@H](C(=O)N5CC(c6cccnc6)C5)N4C3=O)cc2c1)Oc1ccccc1 (stereo partly drawn)
Solution: < 100 nM
